testedTarget: mouse kappa opioid receptor (mKOR) (Mus musculus, UniProt P33534)
Construct: a mouse thymoma cell line that expresses only the kappa-opioid receptor and no other opioid receptor subtype; host or cells: R1.G1 mouse thymoma cells
Sequence (P33534 whole entry): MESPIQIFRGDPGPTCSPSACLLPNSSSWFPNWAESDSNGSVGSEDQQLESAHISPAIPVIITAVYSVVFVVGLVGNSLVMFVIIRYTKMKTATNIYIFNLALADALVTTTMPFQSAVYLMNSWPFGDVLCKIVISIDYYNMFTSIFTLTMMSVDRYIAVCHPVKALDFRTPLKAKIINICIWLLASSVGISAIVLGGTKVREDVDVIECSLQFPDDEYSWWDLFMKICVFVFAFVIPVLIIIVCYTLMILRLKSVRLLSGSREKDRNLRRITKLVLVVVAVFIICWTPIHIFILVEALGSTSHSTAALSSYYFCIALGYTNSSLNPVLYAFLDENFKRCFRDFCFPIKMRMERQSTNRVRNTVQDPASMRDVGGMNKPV
assayProcedure: Inhibition of forskolin-stimulated cAMP production in R1.G1 cells (TR-FRET cAMP immunoassay)
Format: cell-based
recordedConditions: R1.G1 cells, inhibition of forskolin-stimulated cAMP; read-out: mKOR EC50
pEC50: −log10 of the molar value.
pEC50 by entry:

[
  {
    "molSmiles": "CC(C)C[C@@H](NC(=O)[C@@H](Cc1ccccc1)NC(=O)[C@H](N)Cc1ccccc1)C(=O)N[C@H](CCCN)C(=O)NCCCC[C@H](NC(=O)[C@H](N)CCCN)C(=O)N1CCNCC1",
    "pEC50": 8.89
  },
  {
    "molSmiles": "CC(C)C[C@@H](N)C(=O)N[C@H](CCCN)C(=O)N[C@@H](CCCCNC(=O)[C@@H](CCCN)NC(=O)[C@@H](CC(C)C)NC(=O)[C@@H](Cc1ccccc1)NC(=O)[C@H](N)Cc1ccccc1)C(=O)O",
    "pEC50": 7.17
  },
  {
    "molSmiles": "CC(C)C[C@@H](N)C(=O)N[C@H](CCCN)C(=O)N[C@H](CCCCNC(=O)[C@@H](CCCN)NC(=O)[C@@H](CC(C)C)NC(=O)[C@@H](Cc1ccccc1)NC(=O)[C@H](N)Cc1ccccc1)C(=O)O",
    "pEC50": 9.92
  },
  {
    "molSmiles": "CC(C)C[C@@H](NC(=O)[C@@H](Cc1ccccc1)NC(=O)[C@H](N)Cc1ccccc1)C(=O)N[C@H](CCCN)C(=O)NCCCC[C@@H](NC(=O)[C@H](N)CCCN)C(=O)O",
    "pEC50": 10.30
  },
  {
    "molSmiles": "CC(C)C[C@@H](NC(=O)[C@@H](Cc1ccccc1)NC(=O)[C@H](N)Cc1ccccc1)C(=O)N[C@H](CCCN)C(=O)NCCCC[C@H](NC(=O)[C@H](N)CCCN)C(=O)O",
    "pEC50": 9.62
  }
]

###

testedTarget: mouse kappa opioid receptor (mKOR) (Mus musculus, UniProt P33534)
Construct: a mouse thymoma cell line that expresses only the kappa-opioid receptor and no other opioid receptor subtype; host or cells: R1.G1 mouse thymoma cells
assayProcedure: Inhibition of forskolin-stimulated cAMP production in R1.G1 cells (TR-FRET cAMP immunoassay)
Type: cell-based
recordedConditions: R1.G1 cells

[
  {
    "molSmiles": "CC(C)C[C@@H](NC(=O)[C@@H](Cc1ccccc1)NC(=O)[C@H](N)Cc1ccccc1)C(=O)N[C@H](CCCCN)C(=O)NCC1OCCO1",
    "testedTarget": "mouse kappa opioid receptor (mKOR) (Mus musculus, UniProt P33534)",
    "mKOR Efficacy(%)": 85
  },
  {
    "molSmiles": "CC(C)C[C@@H](NC(=O)[C@@H](Cc1ccccc1)NC(=O)[C@H](N)Cc1ccccc1)C(=O)N[C@H](CCCCN)C(=O)N1CCN(c2cnccn2)CC1",
    "testedTarget": "mouse kappa opioid receptor (mKOR) (Mus musculus, UniProt P33534)",
    "mKOR Efficacy(%)": 85
  },
  {
    "molSmiles": "CC(C)C[C@@H](NC(=O)[C@@H](Cc1ccccc1)NC(=O)[C@H](N)Cc1ccccc1)C(=O)N[C@H](CCCCN)C(=O)N1CCN(c2ncccn2)CC1",
    "testedTarget": "mouse kappa opioid receptor (mKOR) (Mus musculus, UniProt P33534)",
    "mKOR Efficacy(%)": 78
  },
  {
    "molSmiles": "CC(C)C[C@@H](NC(=O)[C@@H](Cc1ccccc1)NC(=O)[C@H](N)Cc1ccccc1)C(=O)N[C@H](CCCNC(C)C)C(=O)N1CCC(N)(C(=O)O)CC1",
    "testedTarget": "mouse kappa opioid receptor (mKOR) (Mus musculus, UniProt P33534)",
    "mKOR Efficacy(%)": 92
  },
  {
    "molSmiles": "CC(C)C[C@@H](NC(=O)[C@@H](Cc1ccccc1)NC(=O)[C@H](N)Cc1ccccc1)C(=O)N[C@H](CCCCN)C(=O)NCc1ccc2[nH]c(=O)[nH]c2c1",
    "testedTarget": "mouse kappa opioid receptor (mKOR) (Mus musculus, UniProt P33534)",
    "mKOR Efficacy(%)": 87
  },
  {
    "molSmiles": "CNCCC[C@@H](NC(=O)[C@@H](CC(C)C)NC(=O)[C@@H](Cc1ccccc1)NC(=O)[C@H](N)Cc1ccccc1)C(=O)N1CCCNCC1",
    "testedTarget": "mouse kappa opioid receptor (mKOR) (Mus musculus, UniProt P33534)",
    "mKOR Efficacy(%)": 95
  }
]
